Below: a set of entries, each annotated with reported permeability.
Test: Permeability of the compound assessed as drug transmittance level at 10 uM after 5 hrs by LC-MS detection based PAMPA method
Type: physicochemical
Measured Property: permeability (%)

{"Molecule": "C/C1=C\\[C@H](CC(C)C)NC(=O)[C@@H]2CCCN2C(=O)[C@H](CC(C)C)N(C)C(=O)C[C@@H](O)[C@@H](CC(C)C)NC(=O)[C@H](CC(C)C)N(C)C(=O)[C@H](CC(C)C)N(C)C1=O", "Observed Value": 13}
{"Molecule": "C/C1=C\\[C@@H](CC(C)C)NC(=O)[C@@H]2CCCN2C(=O)[C@H](CC(C)C)N(C)C(=O)C[C@@H](O)[C@@H](CC(C)C)NC(=O)[C@H](CC(C)C)N(C)C(=O)[C@H](CC(C)C)N(C)C1=O", "Observed Value": 37}
{"Molecule": "C/C1=C\\[C@@H](CC(C)C)NC(=O)[C@@H]2CCCN2C(=O)[C@@H](CC(C)C)N(C)C(=O)C[C@H](O)[C@H](CC(C)C)NC(=O)[C@@H](CC(C)C)N(C)C(=O)[C@@H](CC(C)C)N(C)C1=O", "Observed Value": 35}
{"Molecule": "C/C1=C\\[C@H](CC(C)C)NC(=O)[C@@H]2CCCN2C(=O)[C@@H](CC(C)C)N(C)C(=O)C[C@H](O)[C@H](CC(C)C)NC(=O)[C@@H](CC(C)C)N(C)C(=O)[C@@H](CC(C)C)N(C)C1=O", "Observed Value": 11}
{"Molecule": "CC(C)NCC(O)COc1cccc2ccccc12 (stereo not given)", "Observed Value": 46}
